- measured.target: T1, Western Reserve B5 on cells infected with VVddeGFP Western Reserve virus (Vaccinia virus, Western Reserve strain, UniProt Q01227 18-317)
- T1 construct: also called VV B5; WR
- experiment.description: flow cytometry, SKOV3 cells infected with WR VV
observed.property: EC50
Please report the result as a number followed by the unit.

Query: Item A048-H2L3 (antibody, V domains shown) VH: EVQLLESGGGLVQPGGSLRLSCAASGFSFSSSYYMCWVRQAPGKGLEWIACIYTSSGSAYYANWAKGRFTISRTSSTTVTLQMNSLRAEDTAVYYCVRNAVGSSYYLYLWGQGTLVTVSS VL: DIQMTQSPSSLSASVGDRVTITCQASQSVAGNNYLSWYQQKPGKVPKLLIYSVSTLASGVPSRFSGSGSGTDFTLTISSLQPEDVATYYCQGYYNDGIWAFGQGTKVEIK has what recorded EC50?
Result: 0.55 nM

Query: Given the binder A048 parental (antibody, V domains shown, also called A048 rabbit parental antibody; A048 parental anti-B5 hIgG1) VH: QEQLEESGGGLVKPEGSLTLTCTASGFSFSSSYYMCWVRQAPGRGLEWIACIYTSSGSAYYANWAKGRFTISRTSSTTVTLQMTRLTAADTATYFCVRNAVGSSYYLYLWGPGTLVTVSS VL: AQVLTQTPSPVSAAVGGTVTISCQASQSVAGNNYLSWYQQKPGQPPNLLIYSVSTLASGVPSRFKGSGSGTQFTLTISDLECDDAATYYCQGYYNDGIWAFGGGTEVVVK , what is its reported EC50?
Result: 3.98 nM

Query: Need EC50 of A048-H3L4 (antibody, V domains shown) VH: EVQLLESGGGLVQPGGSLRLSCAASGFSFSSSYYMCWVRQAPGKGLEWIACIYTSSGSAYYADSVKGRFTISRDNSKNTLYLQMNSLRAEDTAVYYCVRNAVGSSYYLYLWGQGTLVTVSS VL: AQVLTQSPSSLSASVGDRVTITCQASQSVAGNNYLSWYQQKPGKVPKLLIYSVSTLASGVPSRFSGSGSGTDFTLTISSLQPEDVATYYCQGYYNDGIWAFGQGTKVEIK , thanks.
Result: 1.28 nM
